tested on: HT-1080; test: relative cell viability with RSL3 co-treatment (fraction of control); higher = stronger protection from RSL3-induced ferroptosis (higher viability); conditions: 10 µM
I'd appreciate it if you marked entries Criterion met when relative cell viability is lower than 0.7 and Criterion not met when it is not.

As a guide, the following entries are already answered.
COc1cc2ncnc(Nc3ccc(Cl)cc3F)c2cc1OC	Criterion not met
C[C@]1(O)C[C@@H](c2nc(-c3ccc4ccc(-c5ccccc5)nc4c3)c3c(N)nccn32)C1	Criterion met
CC(C)n1nc(-c2ccc3oc(N)nc3c2)c2c(N)ncnc21	Criterion not met
NCC(=O)Nc1ccc(-n2nc(C(F)(F)F)cc2-c2ccc3c(ccc4ccccc43)c2)cc1	Criterion met
Cc1cc(C)c(/C=C2\C(=O)Nc3ccccc32)[nH]1 [Semaxanib (SU5416)]	Criterion not met

A record lists c1cncc(CN2CCC(n3ncc4c(N5CCOCC5)nc(-c5ccc6[nH]ccc6c5)nc43)CC2)c1 . Is its relative cell viability below 0.7?
Criterion met

----------
system: HT-1080; assay: relative cell viability with RSL3 co-treatment (fraction of control); higher = stronger protection from RSL3-induced ferroptosis (higher viability); settings: 10 µM
I'd appreciate it if you marked entries T when relative cell viability is lower than 0.7 and F when it is not.

CC[C@@H]1C(=O)N(C)c2cnc(Nc3ccc(C(=O)NC4CCN(C)CC4)cc3OC)nc2N1C1CCCC1	T

A record lists Cn1cc(-c2ccc3ncc(Cc4ccc5ncccc5c4)n3n2)cn1 . Is its relative cell viability below 0.7?
F

----------
Measured relative cell viability, listed per entry for reference.
system: HT-1080; assay: relative cell viability with RSL3 co-treatment (fraction of control); higher = stronger protection from RSL3-induced ferroptosis (higher viability); conditions: 10 µM
Please state the value as a number alone, without comment.

Consider the worked cases shown below.
N#CC(=C(/N)Sc1ccccc1N)/C(C#N)=C(\N)Sc1ccccc1N	0.84
O=C(c1ccc(/C=C/c2n[nH]c3ccccc23)cc1)N1CCNCC1	0.773
COc1cc(Nc2c(C#N)cnc3cc(OCCCN4CCN(C)CC4)c(OC)cc23)c(Cl)cc1Cl [Bosutinib (SKI-606)]	0.867
Cc1cc(NC(=O)c2cccc(NC(=O)/C=C/CN(C)C)c2)ccc1Nc1nccc(-c2cccnc2)n1	0.407
Clc1ccc(C2(c3ccc(-c4cn[nH]c4)cc3)CCNCC2)cc1	0.373

Now consider a different compound.
// lookup relative cell viability for O=c1cc(-c2ccccc2)oc2c(O)c(O)ccc12 [7,8-Dihydroxyflavone]
0.713

----------
test system: HT-1080; assay: relative cell viability with RSL3 co-treatment (fraction of control); higher = stronger protection from RSL3-induced ferroptosis (higher viability); conditions: 10 µM;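 also: viability read as CCK-8 absorbance at 450 nm in cells co-exposed to the GPX4 inhibitor RSL3, relative to a 0.01% DMSO vehicle control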
Measured relative cell viability, listed per entry for reference.

Consider the worked cases shown below.
CN1CC[C@H](c2c(O)cc(O)c3c(=O)cc(-c4ccccc4Cl)oc23)[C@H](O)C1	0.49
O=C(NOCC(O)CO)c1cc(Br)c(F)c(F)c1Nc1ccc(I)cc1F (stereo not given)	0.897
N#C/C(=C\c1ccc(O)c(O)c1)C(=O)NCc1ccccc1	0.55
CCc1cc(Nc2nccc(-c3c(-c4ccc(OC)c(C(=O)Nc5c(F)cccc5F)c4)nc4ccccn34)n2)c(OC)cc1N1CCC(N2CCN(S(C)(=O)=O)CC2)CC1	0.55

Now consider a different molecule.
// lookup relative cell viability for COc1ccc(C(=O)Nc2sc3c(c2C(N)=O)CCCC3)cc1OC
0.66

From: the supplement of paper PMC9588786
